All values here come from patent US20230406935A1.

target: T1, Monomeric His-tagged human PD-L1 (Acro biosystems PD1-H5229) (human, UniProt Q9NZQ7 19-238); experiment: SPR Biacore T200, Fcab captured on protein A chip, monomeric antigen in flow, 1:1 fit
T1 construct: also called hPD-L1-his; PD-L1-his
T1 sequence (Q9NZQ7 19-238 limits assumed): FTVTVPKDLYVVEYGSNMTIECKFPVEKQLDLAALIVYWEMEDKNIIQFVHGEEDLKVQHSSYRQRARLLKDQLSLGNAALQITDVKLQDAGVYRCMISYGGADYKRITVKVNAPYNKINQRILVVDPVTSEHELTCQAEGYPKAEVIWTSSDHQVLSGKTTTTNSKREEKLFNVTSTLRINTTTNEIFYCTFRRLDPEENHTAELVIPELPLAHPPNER
observation-type: pKd
Give bare numbers, as −log10 of the molar value.

Look over these answered cases.
binder: Fcab FS17-33-296 (designed binder) TCPPCPAPELLGGPSVFLFPPKPKDTLMISRTPEVTCVVVDVSHEDPEVKFNWYVDGVEVHNAKTKPREEQYNSTYRVVSVLTVLHQDWLNGKEYKCKVSNKALPAPIEKTISKAKGQPREPQVYTLPPSRDESGYWVSLTCLVKGFYPSDIVVEWESNGEPQYWAKTTPPVLDSDGSFFLYSKLTVSNWRWQVDDFSCSVMHEALHNHYTQKSLSLSPGK
observation-type: pKd
value: 9.14

binder: Fcab FS17-33-334 (designed binder) TCPPCPAPELLGGPSVFLFPPKPKDTLMISRTPEVTCVVVDVSHEDPEVKFNWYVDGVEVHNAKTKPREEQYNSTYRVVSVLTVLHQDWLNGKEYKCKVSNKALPAPIEKTISKAKGQPREPQVYTLPPSRDESGYWVSLTCLVKGFYPSDIAVEWESNGEPQYWAKTTPPVLDSDGSFFLYSKLTVSNWRWQLDDFSCSVMHEALHNHYTQKSLSLSPGK
observation-type: pKd
value: 8.71

From here, focus on the item given below.
### Prompt Which pKd value belongs to Fcab FS17-33-289 (designed binder) TCPPCPAPELLGGPSVFLFPPKPKDTLMISRTPEVTCVVVDVSHEDPEVKFNWYVDGVEVHNAKTKPREEQYNSTYRVVSVLTVLHQDWLNGKEYKCKVSNKALPAPIEKTISKAKGQPREPQVYTLPPSRDESGYWVSLTCLVKGFYPSDIVVEWESNGEPQYWAKTTPPVLDSDGSFFLYSKLTVSNWRWQLDDFSCSVMHEALHNHYTQKSLSLSPGK ?
### Response 9.27
